System: RIVA
experimental-details: growth inhibition by drug plus 177Lu-lilotomab satetraxetan (1 - RLU/untreated control) (fraction); higher = stronger inhibition
test-conditions: 10 nM; time (day): 4; 177Lu-lilotomab satetraxetan 0.5 ug/ml
Give 1.0 when the value for growth inhibition by drug plus 177Lu-lilotomab satetraxetan is at least 0.5. Give 0.0 when it is less.

Could you verify whether the entry CC(C)(C#N)c1cc(Cn2cncn2)cc(C(C)(C)C#N)c1 [Anastrozole] shows growth inhibition by drug plus 177Lu-lilotomab satetraxetan of no less than 0.5?
1.0

Could you verify whether the entry `O=C(O)c1ccc2cc(-c3ccc(O)c(C45CC6CC(CC(C6)C4)C5)c3)ccc2c1` shows growth inhibition by drug plus 177Lu-lilotomab satetraxetan of no less than 0.5?
1.0

Could you verify whether the entry Cc1ccc([C@@H]2O[C@H](CO)[C@@H](O)[C@H](O)[C@H]2O)cc1Cc1ccc(-c2ccc(F)cc2)s1 [Canagliflozin] shows growth inhibition by drug plus 177Lu-lilotomab satetraxetan of no less than 0.5?
0.0

###

System: RIVA
experimental-details: growth inhibition by drug alone (1 - RLU/untreated control) (fraction); higher = stronger inhibition
test-conditions: 100 nM; time (day): 6; 177Lu-lilotomab satetraxetan 0 ug/ml
readout-kind: growth inhibition by drug alone
Give your answer as a number; write no unit.

Recorded growth inhibition by drug alone (molecule Cc1[nH]c2ccccc2c1CCNCc1ccc(/C=C/C(=O)NO)cc1 [Panobinostat] ): 0.975

Recorded growth inhibition by drug alone (molecule COc1cc2ncnc(Nc3ccc(F)c(Cl)c3)c2cc1OCCCN1CCOCC1 [Gefitinib (Iressa)] ): -0.479

Recorded growth inhibition by drug alone (molecule `Cc1ccc(C(=O)N(CCCN)[C@@H](c2oc3cc(Cl)ccc3c(=O)c2Cc2ccccc2)C(C)C)cc1` ): 0.957

Recorded growth inhibition by drug alone (molecule `CN1CCN(c2cccc(Nc3nc4c(-c5ccc(S(C)(=O)=O)cc5)cccn4n3)c2)CC1` ): -0.155

Recorded growth inhibition by drug alone (molecule CN1CCN(c2ccc3nc(-c4c(N)c5c(F)cccc5[nH]c4=O)[nH]c3c2)CC1 [Dovitinib (TKI-258)] ): -0.316

Recorded growth inhibition by drug alone (molecule `CN(C)Cc1c(C(=O)NCCOc2ccc(C(=O)NO)cc2)oc2ccccc12` ): 0.158

Recorded growth inhibition by drug alone (molecule Cc1ccc(-n2nc(C(C)(C)C)cc2NC(=O)Nc2ccc(OCCN3CCOCC3)c3ccccc23)cc1 [BIRB 796 (Doramapimod)] ): -0.0954

Recorded growth inhibition by drug alone (molecule `CCC[C@H](NC(=O)/C(C#N)=C/c1cccc(Br)n1)c1ccccc1` ): -0.514

###

Test system: RIVA
experimental-details: growth inhibition by drug plus 177Lu-lilotomab satetraxetan (1 - RLU/untreated control) (fraction); higher = stronger inhibition
test-conditions: 100 nM; time (day): 5; 177Lu-lilotomab satetraxetan 0.5 ug/ml
readout-kind: growth inhibition by drug plus 177Lu-lilotomab satetraxetan
Give your answer as a number; write no unit.

Simply: `CO[C@H]1C[C@@H]2CC[C@@H](C)[C@@](O)(O2)C(=O)C(=O)N2CCCC[C@H]2C(=O)O[C@H]([C@H](C)C[C@@H]2CC[C@@H](OC(=O)C(C)(CO)CO)[C@H](OC)C2)CC(=O)[C@H](C)/C=C(\C)[C@@H](O)[C@@H](OC)C(=O)[C@H](C)C[C@H](C)/C=C/C=C/C=C/1C` , RIVA, growth inhibition by drug plus 177Lu-lilotomab satetraxetan = 0.885

Simply: `Cc1ccc(-c2csc3ncnc(SCCC(=O)O)c23)cc1` , RIVA, growth inhibition by drug plus 177Lu-lilotomab satetraxetan = 0.45

Simply: `CCNC(=O)c1noc(-c2cc(C(C)C)c(O)cc2O)c1-c1ccc(CN2CCOCC2)cc1` , RIVA, growth inhibition by drug plus 177Lu-lilotomab satetraxetan = 0.988

Simply: `Cc1ccc(-c2cc(C(F)(F)F)nn2-c2ccc(S(N)(=O)=O)cc2)cc1` , RIVA, growth inhibition by drug plus 177Lu-lilotomab satetraxetan = 0.453

Simply: `Cc1cc(Nc2cc(N3CCN(C)CC3)nc(Sc3ccc(NC(=O)C4CC4)cc3)n2)n[nH]1` , RIVA, growth inhibition by drug plus 177Lu-lilotomab satetraxetan = 0.616

Simply: Cn1cnc2c(F)c(Nc3ccc(Br)cc3Cl)c(C(=O)NOCCO)cc21 [AZD6244 (Selumetinib)] , RIVA, growth inhibition by drug plus 177Lu-lilotomab satetraxetan = 0.316

Simply: `CCCS(=O)(=O)Nc1ccc(F)c(C(=O)c2c[nH]c3ncc(-c4ccc(Cl)cc4)cc23)c1F` , RIVA, growth inhibition by drug plus 177Lu-lilotomab satetraxetan = 0.539

Simply: `CN1CCN(c2cccc(Nc3nc4c(-c5ccc(S(C)(=O)=O)cc5)cccn4n3)c2)CC1` , RIVA, growth inhibition by drug plus 177Lu-lilotomab satetraxetan = 0.425

Simply: `Cc1ccc(NC(=O)c2cccc(C(C)(C)C#N)c2)cc1Nc1ccc2ncn(C)c(=O)c2c1` , RIVA, growth inhibition by drug plus 177Lu-lilotomab satetraxetan = 0.564

Simply: CC[C@H]1OC(=O)[C@H](C)[C@@H](O[C@H]2C[C@@](C)(OC)[C@@H](O)[C@H](C)O2)[C@H](C)[C@@H](O[C@@H]2O[C@H](C)C[C@H](N(C)C)[C@H]2O)[C@](C)(O)C[C@@H](C)CN(C)[C@H](C)[C@@H](O)[C@]1(C)O [Azithromycin (Zithromax)] , RIVA, growth inhibition by drug plus 177Lu-lilotomab satetraxetan = 0.576

Simply: O=C1[C@H](CC[C@H](O)c2ccc(F)cc2)[C@@H](c2ccc(O)cc2)N1c1ccc(F)cc1 [Ezetimibe (Zetia)] , RIVA, growth inhibition by drug plus 177Lu-lilotomab satetraxetan = 0.489

Simply: `O=C1c2ccccc2-c2nc3nonc3nc21` , RIVA, growth inhibition by drug plus 177Lu-lilotomab satetraxetan = 0.31

Simply: `Nc1nc(Nc2ccc(S(N)(=O)=O)cc2)nn1C(=O)c1c(F)cccc1F` , RIVA, growth inhibition by drug plus 177Lu-lilotomab satetraxetan = 0.611

Simply: `CN(NC(=O)CC(=O)NN(C)C(=S)c1ccccc1)C(=S)c1ccccc1` , RIVA, growth inhibition by drug plus 177Lu-lilotomab satetraxetan = 0.987

Simply: `CC(C)C[C@@H](C(=O)N[C@H](C(=O)OC1CCCC1)c1ccccc1)[C@H](O)C(=O)NO` , RIVA, growth inhibition by drug plus 177Lu-lilotomab satetraxetan = 0.602

Simply: `O=C(Nc1cccnc1)N1CCC(Cc2cccc(Oc3ccc(C(F)(F)F)cn3)c2)CC1` , RIVA, growth inhibition by drug plus 177Lu-lilotomab satetraxetan = 0.583

Simply: `Cc1ccc(-n2nc(C(C)(C)C)cc2NC(=O)Nc2ccc(OCCN3CCOCC3)c3ccccc23)cc1` , RIVA, growth inhibition by drug plus 177Lu-lilotomab satetraxetan = 0.521

Simply: `CC(=O)Nc1cccc(-n2c(=O)n(C3CC3)c(=O)c3c(Nc4ccc(I)cc4F)n(C)c(=O)c(C)c32)c1` , RIVA, growth inhibition by drug plus 177Lu-lilotomab satetraxetan = 0.455

Simply: `O=c1[nH]nc(Sc2ncc([N+](=O)[O-])s2)n1-c1ccc2c(c1)OCCO2` , RIVA, growth inhibition by drug plus 177Lu-lilotomab satetraxetan = 0.468

Simply: `N#CCNC(=O)c1ccc(-c2ccnc(Nc3ccc(N4CCOCC4)cc3)n2)cc1` , RIVA, growth inhibition by drug plus 177Lu-lilotomab satetraxetan = 0.447

Simply: `c1ccc2c(CCNc3ccc(Nc4ccncc4)cc3)c[nH]c2c1` , RIVA, growth inhibition by drug plus 177Lu-lilotomab satetraxetan = 0.278

Simply: `O=C(Nc1ccc(OC(F)(F)F)cc1)c1sccc1NCc1ccnc2ccccc12` , RIVA, growth inhibition by drug plus 177Lu-lilotomab satetraxetan = 0.33

Simply: `CCOc1cc2ncc(C#N)c(Nc3ccc(OCc4ccccn4)c(Cl)c3)c2cc1NC(=O)/C=C/CN(C)C` , RIVA, growth inhibition by drug plus 177Lu-lilotomab satetraxetan = 0.425

Simply: `O=c1cc(N2CCOCC2)oc2c(-c3ccccc3)cccc12` , RIVA, growth inhibition by drug plus 177Lu-lilotomab satetraxetan = 0.473

Simply: `Cc1ccc(C(=O)N(CCCN)[C@@H](c2nc3cc(Cl)ccc3c(=O)n2Cc2ccccc2)C(C)C)cc1` , RIVA, growth inhibition by drug plus 177Lu-lilotomab satetraxetan = 0.971

Simply: `Cc1cnc(NC(=O)Nc2cc(Br)c(C)cc2OC[C@@H]2CNCCO2)cn1` , RIVA, growth inhibition by drug plus 177Lu-lilotomab satetraxetan = 0.235

Simply: CN1CCC(CNc2ccc3ncc(-c4cccc(OC(F)(F)F)c4)n3n2)CC1 [SGI-1776 free base] , RIVA, growth inhibition by drug plus 177Lu-lilotomab satetraxetan = 0.445

Simply: `Nc1nc(Cl)nc2c1ncn2[C@@H]1O[C@H](CO)[C@@H](O)[C@@H]1F` , RIVA, growth inhibition by drug plus 177Lu-lilotomab satetraxetan = 0.943

Simply: CCN(CC)CCCC(C)Nc1nc(C)cc(Nc2ccc3nc(C)cc(N)c3c2)n1 (configuration not stated) , RIVA, growth inhibition by drug plus 177Lu-lilotomab satetraxetan = 0.548

Simply: `O=C(NCCS(=O)(=O)c1ccc(C(F)(F)F)cn1)c1ccc(Cl)cc1` , RIVA, growth inhibition by drug plus 177Lu-lilotomab satetraxetan = 0.517

Simply: COc1ccc(COc2cc3oc(=O)c4cc(C(C)O)ccc4c3cc2OC)cc1 (configuration not stated) , RIVA, growth inhibition by drug plus 177Lu-lilotomab satetraxetan = 0.454

Simply: COc1ccc(C2CC(c3ccccc3)=NN2c2ccc(S(N)(=O)=O)cc2)cc1 (configuration not stated) , RIVA, growth inhibition by drug plus 177Lu-lilotomab satetraxetan = 0.491

Ref: the supplement of paper PMC6897291
